Reference for the values: paper PMC6092045

Target Entity: ERAAP (ER aminopeptidase associated with antigen processing) (Mus musculus, UniProt Q9EQH2)
Sequence (Q9EQH2 whole entry): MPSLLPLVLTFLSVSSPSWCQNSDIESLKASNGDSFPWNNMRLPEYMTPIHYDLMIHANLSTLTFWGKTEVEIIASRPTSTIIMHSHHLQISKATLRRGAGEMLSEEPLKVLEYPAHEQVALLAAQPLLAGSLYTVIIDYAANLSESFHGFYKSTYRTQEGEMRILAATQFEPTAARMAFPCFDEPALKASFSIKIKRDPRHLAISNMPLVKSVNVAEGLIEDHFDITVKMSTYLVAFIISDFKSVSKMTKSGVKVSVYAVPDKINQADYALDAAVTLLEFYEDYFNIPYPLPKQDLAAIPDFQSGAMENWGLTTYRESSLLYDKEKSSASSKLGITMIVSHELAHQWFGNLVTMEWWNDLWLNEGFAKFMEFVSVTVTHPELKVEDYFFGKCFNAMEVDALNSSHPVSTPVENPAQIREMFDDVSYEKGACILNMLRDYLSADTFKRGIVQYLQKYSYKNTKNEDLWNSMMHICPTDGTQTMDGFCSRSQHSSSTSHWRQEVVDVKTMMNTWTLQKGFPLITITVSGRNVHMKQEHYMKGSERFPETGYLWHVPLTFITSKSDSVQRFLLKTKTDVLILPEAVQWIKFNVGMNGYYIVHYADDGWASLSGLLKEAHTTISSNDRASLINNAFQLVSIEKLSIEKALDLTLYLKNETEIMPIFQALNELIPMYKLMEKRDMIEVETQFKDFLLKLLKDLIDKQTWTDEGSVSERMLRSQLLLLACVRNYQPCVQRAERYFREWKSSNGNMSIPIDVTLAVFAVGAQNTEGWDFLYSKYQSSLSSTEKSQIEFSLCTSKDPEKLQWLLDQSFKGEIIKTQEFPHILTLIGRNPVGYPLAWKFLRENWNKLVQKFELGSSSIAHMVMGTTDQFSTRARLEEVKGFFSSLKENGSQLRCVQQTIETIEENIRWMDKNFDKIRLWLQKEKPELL
Assay Notes: fluorogenic Ep peptide cleavage assay, dose-response
Format: biochemical
Assay Metric: pIC50
Friendly reminder that pIC50 comes from taking -log10 of the concentration in mol/L.

-- ask Would you mind telling me what pIC50 value was observed for C#CC(=O)c1ccc(Br)cc1F ?
-- reply 4.64
